# Tested on: TK-10 renal
# METHOD SUMMARY: NCI-60 one-dose screen, 48 h (100 = growth as untreated, 0 = no growth, -100 = all killed)
# CONDITION NOTES: 10 µM unless noted
About 83,000 compounds went through this panel and 20% of them were active in at least one assay; those are over-represented in the sample as a whole.
# Lookup of reported growth keyed by entry
Give just the number in %; leave the unit off.

Use the examples below as a reference point.
Nc1ncnc2c1nc(N)n2C1OC(CO)C(O)C1O (stereo unspecified): -14.2
COC(=O)/C=C1\Sc2cc(F)ccc2NC1=O: 139
CCCC(=O)c1cc(C)ccc1OC: 104

Asked: Please supply the value of reported growth for the item O=C(O)CCC(=O)OC(C1CO1)C(OC(=O)CCC(=O)O)C1CO1 (stereo unspecified)
Given back: 93.2

###

# Test system: 786-0 renal
# METHOD SUMMARY: NCI-60 one-dose screen, 48 h (100 = growth as untreated, 0 = no growth, -100 = all killed)
# CONDITION NOTES: 10 µM
Compounds without any hit were thinned out: in the full panel of roughly 83,000, 20% have a hit.
# Lookup of reported growth keyed by entry
Give just the number in %; leave the unit off.

Use the examples below as a reference point.
CC1CC(O)C2C3(C)CCCC2(COC3=O)C12CCC1(CCOC1=O)O2 (stereo not given): 99.1
CC1(C)Nc2cccc3c(N=Nc4ccc(N=Nc5ccccc5)c5ccccc45)ccc(c23)N1: 122
Oc1ccc(Cc2ccccc2)c2cccnc12: -1.42

Asked: Please supply the value of reported growth for the item Sc1ccc(Nc2c3ccccc3nc3ccccc23)cc1
Given back: 95.5

Asked: Please supply the value of reported growth for the item O=C1c2ccccc2C(=O)c2c1ccc(C(=O)O)c2[N+](=O)[O-]
Given back: 106

###

# Lookup of reported growth keyed by entry
# Tested on: UACC-257 melanoma
# METHOD SUMMARY: NCI-60 one-dose screen, 48 h (100 = growth as untreated, 0 = no growth, -100 = all killed)
# CONDITION NOTES: 10 µM
The panel holds about 83,000 compounds, 20% with a hit somewhere; the sample as a whole holds those more often.
Give just the number in %; leave the unit off.

COc1cccc(/C=N/NC(=S)NC2CC3CCC2C3)c1O (stereo not drawn): 73.6
CC(=O)Cc1cc(-c2cc(CC(C)=O)[nH]n2)n[nH]1: 93
CCOC(=O)Nc1cc2c(c(N)n1)N=C(c1ccccc1)CO2: 86.4
O=C(Cc1nc2ccc([N+](=O)[O-])cc2nc1CC(=O)c1ccccc1)c1ccccc1: 86.9
O=C(O)CCC(=O)OC(C1CO1)C(OC(=O)CCC(=O)O)C1CO1 (stereo not drawn): 85
Cc1cc(NC(=O)CSCC(=O)O)no1: 95.4
CN(C)c1ccc2nc3ccc(=N)cc-3sc2c1: 13.9
CC1NC(=O)NC1CCCCCC(=O)O (stereo not drawn): 86.6

Asked: Please supply the value of reported growth for the item C/C(=N/NC(N)=O)c1ccco1
Given back: 83

Asked: Please supply the value of reported growth for the item COc1ccc(OC)c(/C=C2\CCc3ccccc3C2=O)c1
Given back: 75.3

Asked: Please supply the value of reported growth for the item O=C(O)c1cccc([N+](=O)[O-])c1
Given back: 107

Asked: Please supply the value of reported growth for the item Cc1nc2ccccc2c(C(=O)O)c1O
Given back: 96.7

Asked: Please supply the value of reported growth for the item CCC/C=C(/C(C)=O)C(=O)OCC
Given back: 81.2

Asked: Please supply the value of reported growth for the item CCCCCC(C)(CC(=O)O)CC(=O)O
Given back: 101

Asked: Please supply the value of reported growth for the item O=[N+]([O-])c1cccc(C(F)(F)F)c1
Given back: 97.3
